PROTOCOL: Plasma levels of SA during CI therapy (HPLC)
Format: in vivo, male Lewis rats
MEASUREMENT_CONTEXT: rat, plasma, sc, 400 mg/kg/day, 400 mg/kg/day CI, blood collected on day 9, individual rats SA-C1, SA-C2, SA-C3; read-out: SA Level (plasma)
VALUE_KIND: concentration at 216 h (µM)
Quick note: give the figure in µM, leave out the unit.

Can you share its concentration at 216 h? I mean this compound: CC(=O)CC(=O)CCC(=O)O
44
